# OD450 annotations
# assayed_system: T1, human MSLN-hFc protein (Acro, Cat. No. MSN-H5253) (human, UniProt Q13421 296-580)
# T1 construct: the method names the coated protein as human MSLN-hFc (Acro); also called human MSLN full-length protein
# T1 sequence (Q13421 other isoform, or with tags, fused parts or gaps limits assumed): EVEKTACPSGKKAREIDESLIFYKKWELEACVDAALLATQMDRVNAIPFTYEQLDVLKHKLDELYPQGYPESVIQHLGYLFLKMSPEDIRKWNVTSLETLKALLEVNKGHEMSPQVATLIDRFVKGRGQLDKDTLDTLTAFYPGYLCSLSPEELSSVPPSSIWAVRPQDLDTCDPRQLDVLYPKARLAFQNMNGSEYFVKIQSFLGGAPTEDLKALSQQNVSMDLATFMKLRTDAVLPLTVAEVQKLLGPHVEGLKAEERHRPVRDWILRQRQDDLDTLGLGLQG
# protocol_description: ELISA on coated antigen, antibody 100 nM
quantity: OD450 (OD450)

binder	endpoint_value
F7.44.20-H14 (scFv, not shown: small tags and cut ends, also called S009-F7.44.20 humanized antibody VH2a + VL2) scFv: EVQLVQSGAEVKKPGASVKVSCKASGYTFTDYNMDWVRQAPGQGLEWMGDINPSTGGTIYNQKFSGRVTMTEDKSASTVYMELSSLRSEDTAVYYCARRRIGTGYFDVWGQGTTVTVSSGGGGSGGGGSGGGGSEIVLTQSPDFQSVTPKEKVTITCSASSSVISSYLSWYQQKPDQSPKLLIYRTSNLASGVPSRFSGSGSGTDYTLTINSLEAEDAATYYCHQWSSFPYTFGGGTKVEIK	3.13
F7.44.20-H16 (scFv, not shown: small tags and cut ends, also called S009-F7.44.20 humanized antibody VH2a + VL4) scFv: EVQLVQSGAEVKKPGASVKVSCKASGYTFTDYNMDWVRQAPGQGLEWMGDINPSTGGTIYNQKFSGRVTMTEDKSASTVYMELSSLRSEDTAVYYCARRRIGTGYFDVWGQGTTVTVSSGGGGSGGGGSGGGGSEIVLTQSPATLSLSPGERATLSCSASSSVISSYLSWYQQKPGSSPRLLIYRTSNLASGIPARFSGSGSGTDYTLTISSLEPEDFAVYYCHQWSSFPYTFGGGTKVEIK	2.97
F7.44.20 (scFv, not shown: small tags and cut ends, also called S009-F7.44.20 (parental variable regions, in the humanized-antibody ELISA)) scFv: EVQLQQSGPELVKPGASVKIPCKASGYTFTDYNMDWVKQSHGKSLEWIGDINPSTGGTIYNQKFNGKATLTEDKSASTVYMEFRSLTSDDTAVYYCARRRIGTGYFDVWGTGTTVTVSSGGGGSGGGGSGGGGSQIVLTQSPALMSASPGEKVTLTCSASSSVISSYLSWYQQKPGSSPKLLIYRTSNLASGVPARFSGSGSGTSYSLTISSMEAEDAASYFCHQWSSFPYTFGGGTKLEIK	2.97
F7.44.20-H13 (scFv, not shown: small tags and cut ends, also called S009-F7.44.20 humanized antibody VH2a + VL1) scFv: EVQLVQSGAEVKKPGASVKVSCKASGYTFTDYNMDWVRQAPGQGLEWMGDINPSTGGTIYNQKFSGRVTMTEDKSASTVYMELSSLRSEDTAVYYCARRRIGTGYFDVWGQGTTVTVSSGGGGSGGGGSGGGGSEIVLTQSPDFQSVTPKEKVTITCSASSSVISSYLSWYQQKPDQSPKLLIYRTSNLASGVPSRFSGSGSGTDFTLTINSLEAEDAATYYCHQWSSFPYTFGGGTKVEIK	3.12
F7.44.20-H12 (scFv, not shown: small tags and cut ends, also called S009-F7.44.20 humanized antibody VH2 + VL4) scFv: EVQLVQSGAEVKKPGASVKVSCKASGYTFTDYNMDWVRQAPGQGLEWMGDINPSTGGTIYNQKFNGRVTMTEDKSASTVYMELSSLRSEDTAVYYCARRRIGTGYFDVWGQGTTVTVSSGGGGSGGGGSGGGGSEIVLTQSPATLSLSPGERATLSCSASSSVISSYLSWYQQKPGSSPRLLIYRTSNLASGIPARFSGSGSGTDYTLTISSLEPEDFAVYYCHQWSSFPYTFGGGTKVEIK	3.17
F7.44.20-H11 (scFv, not shown: small tags and cut ends, also called S009-F7.44.20 humanized antibody VH2 + VL3) scFv: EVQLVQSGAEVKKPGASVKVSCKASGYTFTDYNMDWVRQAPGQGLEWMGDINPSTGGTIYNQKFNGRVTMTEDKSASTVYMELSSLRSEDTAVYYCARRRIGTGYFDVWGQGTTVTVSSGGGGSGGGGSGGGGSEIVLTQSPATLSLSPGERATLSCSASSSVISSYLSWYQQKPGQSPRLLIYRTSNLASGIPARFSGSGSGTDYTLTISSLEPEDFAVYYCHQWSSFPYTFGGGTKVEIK	3.28
